protocol_text: Detergent binding to resin, foaming of supernatant
Format: physicochemical
Set-up: key: foaming presence (+); absence (−)
condition_info: 10 mM detergent solution incubated with resin beads
measure_name: foaming of supernatant as indicator of detergent presence, Purolite

- C[C@H](CCC(=O)O)[C@H]1CC[C@H]2[C@@H]3CC[C@@H]4C[C@H](O)CC[C@]4(C)[C@H]3C[C@H](O)[C@]12C [Deoxycholate, deoxycholic acid]: −
- C[C@H](CCC(=O)O)[C@H]1CC[C@H]2[C@@H]3[C@H](O)C[C@@H]4C[C@H](O)CC[C@]4(C)[C@H]3C[C@H](O)[C@]12C [Cholate, cholic acid]: −
- CCCCCCCCO[C@@H]1O[C@H](CO)[C@@H](O)[C@H](O)[C@H]1O [OG, n-octyl-B-D-glucopyranoside]: +
- CCCCCCCCOC(=O)CC(C(=O)OCCCCCCCC)S(=O)(=O)O (stereo not drawn) [DSS, dioctyl sulfosuccinate]: −

Value sought for every listed compound: foaming of supernatant as indicator of detergent presence, Purolite.
1. CCCCCCCC(=O)O [Caprylate, caprylic acid]
2. CCCCCCCCCCCCOS(=O)(=O)[O-].[Na+] [SDS, sodium dodecylsulfate]

Result:
["−", "−"]
